test system: HT29 colon; assay: NCI tumour cell line growth inhibition, 48 h
measurement_name: TGI (µM)
Field format: number, assumed µM, no unit text.

Look over these answered cases.
compound	target_desc	measurement_unit	TGI
O=C(CC(=O)n1nc(-c2ccccc2)c(N=Nc2ccc([N+](=O)[O-])cc2)c1-c1ccccc1)Nc1ccc(Cl)cc1	HT29 colon	µM	58.5
O=C1c2c[n+](Cc3ccccc3)ccc2-c2nc3ccccc3c3ccnc1c23	HT29 colon	µM	3.46

Consider now this further compound.
# get_value(readout='TGI', item= Cc1cc(O)c(C(O)c2ccccn2)cc1O (centres undefined) )
44

====

# key: entry, value: TGI
system: OVCAR-8 ovarian; assay: NCI tumour cell line growth inhibition, 48 h

// known answers, use as guide
molecule	reading
C=Cc1c(-c2ccccc2)cnc2[nH]c3ccccc3c12	> 50 µM
COc1cnc2oc3ccc(O)cc3c2c1-c1ccccc1	> 100 µM
O=[N+]([O-])c1cc2c(ccc3ccccc32)o1	5.83 µM
COc1cccc(/C=N/[N+](C)(C)C)c1O	> 10 µM
O=C1/C(=C/c2ccccc2)CN(C(=O)/C=C/c2ccccc2)C/C1=C\c1ccccc1	9.78 µM

So what's the measured TGI for this one? COc1ccc2c(c1)C1Oc3ccccc3CC1CO2 (stereo unspecified)
> 100 µM

====

tested on: 786-0 renal; assay: NCI tumour cell line growth inhibition, 48 h
# key: entry, value: TGI

Example entries and their recorded answers appear below.
compound	TGI
C=Cc1c(-c2ccccc2)cnc2[nH]c3ccccc3c12	> 50 µM
O=C(OCc1ccccc1)N1N=NC2C3CC(OCc4ccccc4)(OCc4ccccc4)C(O3)C21 (configuration not stated)	> 100 µM
CC1Nc2ccccc2NC1C=C(C#N)C#N (configuration not stated)	29.6 µM
CC(Oc1ccc(Cl)cc1Cl)C(=O)NN1C(=O)CC(=O)NC1=S (configuration not stated)	> 100 µM
CC[C@@]1(O)C(=O)OCc2c1cc1n(c2=O)Cc2cc3c(N)c(OC)ccc3nc2-1	0.0738 µM
CC(C)(C)C1CC[C@H](O)[C@H]([C@@H](O)CC2CC(=O)N(c3ccccc3)C(=O)C2)C1 (some centres not stated)	> 100 µM
O=C(Nc1cccc2[nH]c(C(F)(F)F)nc12)c1ccc(Br)cc1F	15.1 µM
CN(COC(=O)C(C)(C)C)c1nc(N(C)COC(=O)C(C)(C)C)nc(N(C)COC(=O)C(C)(C)C)n1	> 100 µM
Cc1ccccc1-c1cc(=O)c2cc(C)c(C)c(C(=O)O)c2o1	> 100 µM
Fc1nc(-c2c3ccccc3c3sc4ccccc4n23)nc(N2CCOCCOCCOCCOCC2)n1	> 100 µM

Could you now look at the following compound, please?
Please look up its TGI: `O=S(=O)([O-])c1ccc(C=Nc2ccccc2)c([O-])c1.O=S(=O)([O-])c1ccc(C=Nc2ccccc2)c([O-])c1.[Co+2]`
> 100 µM

====

system: HCT-116 colon; assay: NCI tumour cell line growth inhibition, 48 h
measurement_name: TGI

Completed entries (count: 4):
compound	TGI
C(#Cc1ccccc1C#Cc1cnccn1)c1cnccn1	> 100 µM
COc1ccc(C2=NC(CO)[C@H](c3ccccc3)O2)cc1OC (stereo not given in full)	> 100 µM
COc1c(O)ccc(/C=N/NC(=S)NCOCCOC(C)=O)c1OC	> 100 µM
ON[C@@H]1C=C[C@H](n2cnc3c(NC4CC4)ncnc32)C1	> 100 µM

For HCT-116 colon, provide TGI of `O=C1CSc2ccnc(=O)n21` please.
> 100 µM

# iterate: `CCOC(=O)c1sc2c(c1OC(=O)c1ccco1)c(=O)n(-c1ccccc1)c(=S)n2-c1ccccc1`
> 100 µM

====

List of GI50 values.
system: NCI/ADR-RES ovarian; experiment: NCI tumour cell line growth inhibition, 48 h

Check out these entries, answers already filled in.
CC1=C(C(=O)Nc2cc(F)c(F)cc2F)C(c2ccc(N(C)C)cc2)C(C(=O)Nc2cc(F)c(F)cc2F)=C(C)N1 41.2 µM
CCOC(=O)c1nc2sc(Cl)cn2c1/C=N/N=C(N)N 39 µM
CCn1cnc(C[C@H](NC(=O)[C@@H](NC(=O)Nc2cc(C(F)(F)F)cc(C(F)(F)F)c2)C(C)(C)C)C(=O)OC)c1 > 10 µM
COc1cc(/C=C/C(=O)c2cccc(-n3cc(-c4ccccc4)[nH]c3=O)c2)ccc1O 3.5 µM

Now take the following compound into account.
// query GI50 value for entry `O=C(Nc1cccc2[nH]c(C(F)(F)F)nc12)c1ccc(Br)cc1F`
3.35 µM

====

system: HCT-15 colon; assay: NCI tumour cell line growth inhibition, 48 h
measurement_name: TGI

molecule	TGI
CN(C)/C=N/S(=O)(=O)c1nn2c(C=O)c(-c3ccc(-c4ccccc4)cc3)nc2s1	7.75 µM
c1ccc2c(c1)n1c(N3CCCC3)[n+]3ccccc3c1c1c3cccc[n+]3c(N3CCCC3)n21	> 100 µM
COc1cnc2oc3ccc(O)cc3c2c1-c1ccccc1	> 100 µM
O=C(NCCc1nccs1)c1cnc2c(S)cccc2c1	88.6 µM
CCOC(=O)C1Cc2ccc(C)cc2C1=O (centres undefined)	> 100 µM
CCc1cccc(CC)c1Nc1nc(-c2ccccc2-c2ccccc2)cs1	> 100 µM

So what's the measured TGI for this one? `Cc1ccc(S(=O)(=O)NC(=O)Nc2ncn[nH]2)cc1`
> 100 µM

Would you mind doing `COc1c(O)ccc(/C=N/NC(=S)NCOCCOC(C)=O)c1OC` as well?
> 100 µM

Would you kindly repeat that for `O=C1c2ccccc2C(=O)N1CCN(CCN1C(=O)c2ccccc2C1=O)Cc1ccccc1` ?
> 100 µM

Same again, this time with O=C(OCc1ccccc1)N1N=NC2C3CC(OCc4ccccc4)(OCc4ccccc4)C(O3)C21 (centres undefined)
> 100 µM

Same read-out for O=C1NCC2(CCN(CC3COc4ccccc4O3)CC2)N1c1ccccc1 (centres undefined) ?
> 100 µM

Also, C[C@]12CC/C(=N\OCCN3CCCC3)C=C1CCC1C2CC[C@@]2(C)C1CC[C@]2(C)O (some centres undefined) please.
15 µM

Item: `Cc1nsc2cc(Cl)n(C)c(=O)c12`
> 100 µM

# iterate: `NC(N)=N/N=C/c1c(Cl)nc2n1CCS2`
> 100 µM

====

test system: RPMI-8226 leukemia; test: NCI tumour cell line growth inhibition, 48 h
measurement_name: TGI

Examples with answers:
compound	reading
CN(C)Cc1nsc(N(C)C)n1	> 100 µM
COc1ccc(C)cc1-c1ccc(-c2cc(C)ccc2OC)o1	> 100 µM
CN(C)c1ccc(-c2nc(N)nc3c2CCCC3)cc1	> 100 µM

Dear colleague, I am looking for the recorded TGI of the following compound: Nc1ncnc2c1ncn2C1OC(F)(COS(N)(=O)=O)C(O)C1O (centres undefined)
> 100 µM

One more compound: `CCOc1ccc(NC(=O)/C=C/c2ccco2)cc1`
> 100 µM

Same for `c1ccc([P+](Cc2ccc(C[P+](c3ccccc3)(c3ccccc3)c3ccccc3)s2)(c2ccccc2)c2ccccc2)cc1`
> 100 µM

Lookup `CC(C)OC(=O)NNc1c(Cl)cc(Cl)cc1Cl`
> 100 µM

Same thing, different compound: C=C1C(=O)OC2/C=C(CO)/C=C\C3OC3(C)CC(OC(=O)/C(C)=C/COC(C)=O)C12 (centres undefined)
4.33 µM

How about this compound: `CCOC(=O)c1sc2c(c1OC(=O)c1ccco1)c(=O)n(-c1ccccc1)c(=S)n2-c1ccccc1`
78.5 µM

====

Measured TGI of individual entries
system: NCI-H226 lung; test: NCI tumour cell line growth inhibition, 48 h

Reference set, count: 3
compound	reading
O=C1/C(=C/c2ccccc2)CN(C(=O)/C=C/c2ccccc2)C/C1=C\c1ccccc1	60.6 µM
CC1CCC2C(C(=O)O[C@H]3C4C=CO[C@@H](OC5OC(CO)C(O)C(O)C5O)C4[C@@]4(CO)O[C@@H]34)=CO[C@@H](OC3OC(CO)C(O)C(O)C3O)C12 (stereo partly drawn)	> 10 µM
O=C(O)C(Cc1ccc(O)cc1)N=Cc1nc(-c2ccccc2)oc1O (stereo not drawn)	> 100 µM

Please look up its TGI: `O=C(Cn1c(C(=O)/C=C/c2ccc(Cl)c(Cl)c2)nc2ccccc21)c1ccccc1`
> 100 µM

Same thing, different compound: CC1Nc2ccccc2NC1C=C(C#N)C#N (stereo not drawn)
36.9 µM

Queued: `COc1ccc(/C=N/n2c(Cc3ccccc3)n[nH]c2=O)c(OC)c1`
> 80.9 µM

And what about the compound `O=[N+]([O-])c1cc2c(ccc3ccccc32)o1` ?
4.22 µM

Would you kindly repeat that for O=C(NC1C(=O)NC(CCc2ccccc2)NC1=O)OCc1ccccc1 (stereo not drawn) ?
> 100 µM

====

Reported GI50 values for the following compounds.
system: LOX IMVI melanoma; experiment: NCI tumour cell line growth inhibition, 48 h

Past entries and their recorded results:
compound	reading
Nc1ncnc2c1ncn2C1OC(F)(COS(N)(=O)=O)C(O)C1O (centres undefined)	> 100 µM
O=C1/C(=C/c2ccc([N+](=O)[O-])s2)Oc2ccc(Br)cc21	0.209 µM

So what GI50 did `CCCCCCCCCCCCNCCCc1ccccc1` get with LOX IMVI melanoma?
1.77 µM

What do you get for `O=C1CC[C@@H]2[C@H]3CCC(=O)c4c3c(c3cccc(O)c3c4O)O[C@@]23C(=O)c2cccc(O)c2C(O)=C13` ?
> 100 µM
